The values you see were collected from patent US20080004302A1.

Molecular target: FGFR1 kinase (Homo sapiens, UniProt P11362)
Sequence (P11362 22-822): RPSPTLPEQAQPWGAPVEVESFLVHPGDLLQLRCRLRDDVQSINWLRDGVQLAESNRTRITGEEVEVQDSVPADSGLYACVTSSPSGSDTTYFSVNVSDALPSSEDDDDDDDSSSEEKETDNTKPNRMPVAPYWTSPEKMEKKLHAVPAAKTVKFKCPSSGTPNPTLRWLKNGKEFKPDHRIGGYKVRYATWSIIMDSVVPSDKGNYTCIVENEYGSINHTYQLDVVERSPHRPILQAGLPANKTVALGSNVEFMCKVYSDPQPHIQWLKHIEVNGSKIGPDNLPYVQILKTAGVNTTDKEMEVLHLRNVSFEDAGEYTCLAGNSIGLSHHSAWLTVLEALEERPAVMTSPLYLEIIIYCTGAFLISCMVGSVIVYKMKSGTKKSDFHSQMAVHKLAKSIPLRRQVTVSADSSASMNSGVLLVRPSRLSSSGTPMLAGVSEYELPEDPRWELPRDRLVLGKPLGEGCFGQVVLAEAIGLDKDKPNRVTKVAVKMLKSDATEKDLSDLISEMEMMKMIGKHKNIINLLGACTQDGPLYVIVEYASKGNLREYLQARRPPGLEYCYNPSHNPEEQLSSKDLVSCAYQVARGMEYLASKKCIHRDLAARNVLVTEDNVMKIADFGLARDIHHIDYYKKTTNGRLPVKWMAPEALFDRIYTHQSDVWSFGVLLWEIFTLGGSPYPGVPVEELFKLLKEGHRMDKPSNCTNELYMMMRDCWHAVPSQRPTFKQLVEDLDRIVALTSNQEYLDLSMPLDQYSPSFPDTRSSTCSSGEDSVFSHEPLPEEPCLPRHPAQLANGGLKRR
Assay: Kinase assay (using Caliper technology)
Format: biochemical
Settings: FGFR1 kinase, Caliper; upper bound of bin; read-out: IC50
pIC50: −log10 of the molar value. Counter-ions that a name gives are not always drawn.
# pIC50 per record follows

[
  {
    "molecule": "Cc1cc(CNc2nccc(Nc3cc(OCCOc4ccccc4)[nH]n3)n2)on1 [Example 101]",
    "experimental system": "FGFR1 kinase (Homo sapiens, UniProt P11362)",
    "pIC50": "> 6.00"
  },
  {
    "molecule": "Cc1cc(CNc2nccc(Nc3cc(OCc4cccc(F)c4)[nH]n3)n2)on1 [Example 94, hydrochloride]",
    "experimental system": "FGFR1 kinase (Homo sapiens, UniProt P11362)",
    "pIC50": "> 6.00"
  },
  {
    "molecule": "CC(C)Cc1cc(Nc2ccnc(NCc3cc(C4CC4)no3)n2)n[nH]1 [Example 16]",
    "experimental system": "FGFR1 kinase (Homo sapiens, UniProt P11362)",
    "pIC50": "> 6.70"
  },
  {
    "molecule": "Cc1cc(CNc2nccc(Nc3cc(CCc4ccco4)[nH]n3)n2)on1 [Example 107]",
    "experimental system": "FGFR1 kinase (Homo sapiens, UniProt P11362)",
    "pIC50": "> 6.70"
  },
  {
    "molecule": "Cc1cc(CNc2nccc(Nc3cc(CCc4cccc(O)c4)[nH]n3)n2)on1 [Example 41]",
    "experimental system": "FGFR1 kinase (Homo sapiens, UniProt P11362)",
    "pIC50": "> 6.70"
  },
  {
    "molecule": "CC(C)Oc1cc(Nc2ccnc(NCc3cc(C4CCCO4)no3)n2)[nH]n1 (centres unmarked) [Example 84]",
    "experimental system": "FGFR1 kinase (Homo sapiens, UniProt P11362)",
    "pIC50": "> 6.70"
  },
  {
    "molecule": "CCc1cccc(COc2cc(Nc3ccnc(NCc4cc(C)no4)n3)n[nH]2)c1 [Example 74]",
    "experimental system": "FGFR1 kinase (Homo sapiens, UniProt P11362)",
    "pIC50": "> 5.00"
  },
  {
    "molecule": "COc1cccc(CCc2cc(Nc3ccnc(NCc4cc(-c5ncccn5)no4)n3)[nH]n2)c1 [Example 33]",
    "experimental system": "FGFR1 kinase (Homo sapiens, UniProt P11362)",
    "pIC50": "> 6.70"
  }
]

###

Target: human IGF1R (Homo sapiens, UniProt P08069)
Sequence (P08069 31-1367): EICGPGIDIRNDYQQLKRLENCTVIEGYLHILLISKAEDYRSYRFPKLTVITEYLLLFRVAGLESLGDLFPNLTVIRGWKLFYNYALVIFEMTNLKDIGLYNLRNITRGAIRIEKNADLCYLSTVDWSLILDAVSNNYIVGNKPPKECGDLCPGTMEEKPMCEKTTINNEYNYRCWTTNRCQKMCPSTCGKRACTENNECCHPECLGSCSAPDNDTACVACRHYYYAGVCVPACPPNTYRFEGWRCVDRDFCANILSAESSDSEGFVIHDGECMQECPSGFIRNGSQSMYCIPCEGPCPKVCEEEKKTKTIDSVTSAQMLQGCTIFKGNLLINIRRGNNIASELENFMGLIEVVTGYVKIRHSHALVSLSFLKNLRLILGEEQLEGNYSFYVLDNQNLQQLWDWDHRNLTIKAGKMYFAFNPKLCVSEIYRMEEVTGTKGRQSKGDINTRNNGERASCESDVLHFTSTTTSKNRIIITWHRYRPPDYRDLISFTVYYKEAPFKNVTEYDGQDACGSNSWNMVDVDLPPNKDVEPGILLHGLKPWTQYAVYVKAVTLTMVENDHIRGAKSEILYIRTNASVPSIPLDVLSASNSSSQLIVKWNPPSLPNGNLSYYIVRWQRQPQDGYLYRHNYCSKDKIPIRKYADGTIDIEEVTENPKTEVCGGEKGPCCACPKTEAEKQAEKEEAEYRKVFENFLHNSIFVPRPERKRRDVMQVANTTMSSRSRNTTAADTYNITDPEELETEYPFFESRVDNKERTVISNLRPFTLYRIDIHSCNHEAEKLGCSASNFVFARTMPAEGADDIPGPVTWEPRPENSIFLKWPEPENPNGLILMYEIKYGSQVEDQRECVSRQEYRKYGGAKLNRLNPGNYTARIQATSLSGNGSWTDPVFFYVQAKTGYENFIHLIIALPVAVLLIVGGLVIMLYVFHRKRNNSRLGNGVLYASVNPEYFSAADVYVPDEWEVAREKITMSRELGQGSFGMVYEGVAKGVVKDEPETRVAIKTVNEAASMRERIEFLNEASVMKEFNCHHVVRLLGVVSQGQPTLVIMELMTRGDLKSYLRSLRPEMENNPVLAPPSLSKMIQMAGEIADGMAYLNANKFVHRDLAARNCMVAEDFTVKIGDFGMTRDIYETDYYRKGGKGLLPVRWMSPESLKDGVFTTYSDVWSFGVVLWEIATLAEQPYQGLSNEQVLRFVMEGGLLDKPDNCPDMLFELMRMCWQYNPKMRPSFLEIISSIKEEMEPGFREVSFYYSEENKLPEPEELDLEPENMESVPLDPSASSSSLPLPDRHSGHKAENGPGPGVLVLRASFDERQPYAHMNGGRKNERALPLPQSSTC
Experiment: Inhibition of insulin-like growth factor-1 receptor phosphorylation in R+ cells
Conditions: 30 nM IGF1, read-out: IGF cell class
Protocol: This immunofluorescence end point cell assay measures the ability of a test compound to reduce the measured levels of IGF1R phosphorylation after IGF1 stimulation in R^+ cells. […] Following the compound treatment, the R^+ cells were stimulated with a final concentration of 30 nM IGF1 (Gropep 1M001) for 20 minutes at 37° C. […] Additionally, in-house antibodies raised against phospho […] were also used at a suitable titre determined for each batch. […]
Counter-ions that a name gives are not always drawn.
# IC50 per record follows

[
  {
    "compound": "COc1ncc(CCc2cc(Nc3ccnc(NCc4cc(C)no4)n3)n[nH]2)c(OC)n1 [Example 60]",
    "experimental system": "human IGF1R (Homo sapiens, UniProt P08069)",
    "IC50": "> 10 µM"
  },
  {
    "compound": "Cc1cc(CNc2nccc(Nc3cc(OCc4cccc(C(=O)N5CCOCC5)c4)[nH]n3)n2)on1 [Example 90]",
    "experimental system": "human IGF1R (Homo sapiens, UniProt P08069)",
    "IC50": "> 10 µM"
  },
  {
    "compound": "Cc1cc(CNc2nccc(Nc3cc(OCc4cccc(C(F)(F)F)c4)[nH]n3)n2)on1 [Example 95, hydrochloride]",
    "experimental system": "human IGF1R (Homo sapiens, UniProt P08069)",
    "IC50": "> 10 µM"
  },
  {
    "compound": "c1ccc(OCc2cc(Nc3ccnc(NCc4cc(C5CC5)no4)n3)[nH]n2)cc1 [Example 35]",
    "experimental system": "human IGF1R (Homo sapiens, UniProt P08069)",
    "IC50": "> 10 µM"
  },
  {
    "compound": "Cc1cc(CNc2nccc(Nc3cc(CCc4cccc(OC(F)(F)F)c4)[nH]n3)n2)on1 [Example 51]",
    "experimental system": "human IGF1R (Homo sapiens, UniProt P08069)",
    "IC50": "> 10 µM"
  },
  {
    "compound": "Cc1cc(CNc2nccc(Nc3cc(-c4cccs4)[nH]n3)n2)on1 [Example 104]",
    "experimental system": "human IGF1R (Homo sapiens, UniProt P08069)",
    "IC50": "1 to 10 µM"
  },
  {
    "compound": "COc1ccc(CCc2cc(Nc3ccnc(NCc4cc(C)no4)n3)n[nH]2)cc1 [Example 24]",
    "experimental system": "human IGF1R (Homo sapiens, UniProt P08069)",
    "IC50": "> 10 µM"
  },
  {
    "compound": "CNC(=O)c1cc(CNc2nccc(Nc3cc(CCc4cccc(O)c4)n[nH]3)n2)on1 [Example 65]",
    "experimental system": "human IGF1R (Homo sapiens, UniProt P08069)",
    "IC50": "1 to 10 µM"
  }
]

###

# IC50 per record follows
Biological target: UniProtKB P11362
Test: Kinase assay (using Caliper technology)
Assay type: biochemical
Settings: FGFR1 kinase, Caliper; upper bound of bin; read-out: IC50
Counter-ions that a name gives are not always drawn.
measured metric: IC50

[
  {
    "compound": "Cc1cc(CNc2nccc(Nc3cc(CCc4cccc(N5CCOCC5)c4)[nH]n3)n2)on1",
    "assay value": "< 10000 nM"
  },
  {
    "compound": "Cc1cc(CNc2nccc(Nc3cc(CCc4cccc(C#N)c4)[nH]n3)n2)on1",
    "assay value": "< 1000 nM"
  },
  {
    "compound": "COc1ccc(CCc2cc(Nc3ccnc(NCc4cc(C5CC5)no4)n3)n[nH]2)cc1",
    "assay value": "< 1000 nM"
  },
  {
    "compound": "COc1cccc(CCc2cc(Nc3ccnc(NCc4cc(C5CC5)no4)n3)n[nH]2)c1",
    "assay value": "< 200 nM"
  },
  {
    "compound": "COc1cc(OC)cc(OCc2cc(Nc3ccnc(NCc4cc(C)no4)n3)n[nH]2)c1",
    "assay value": "< 200 nM"
  },
  {
    "compound": "Cc1cc(CNc2nccc(Nc3cc(CCc4ccc(CN(C)C)o4)[nH]n3)n2)on1",
    "assay value": "< 1000 nM"
  },
  {
    "compound": "NC(=O)c1cc(CNc2nccc(Nc3cc(CCc4cccc(OCC5CC5)c4)[nH]n3)n2)on1",
    "assay value": "< 1000 nM"
  },
  {
    "compound": "COc1ncc(CCc2cc(Nc3ccnc(NCc4cc(C)no4)n3)n[nH]2)s1",
    "assay value": "< 1000 nM"
  },
  {
    "compound": "COc1cncc(CCc2cc(Nc3ccnc(NCc4cc(CN(C)C)no4)n3)n[nH]2)c1",
    "assay value": "< 1000 nM"
  },
  {
    "compound": "Cc1cc(CNc2nccc(Nc3cc(OCc4ccoc4)[nH]n3)n2)on1",
    "assay value": "< 200 nM"
  },
  {
    "compound": "Cc1cc(CNc2nccc(Nc3cc(CCc4ccoc4)[nH]n3)n2)on1",
    "assay value": "< 200 nM"
  },
  {
    "compound": "CCOc1ccc(COc2cc(Nc3ccnc(NCc4cc(C)no4)n3)n[nH]2)cc1OC",
    "assay value": "< 10000 nM"
  },
  {
    "compound": "COc1cc(Nc2cc(OC(C)C)[nH]n2)nc(NCc2cc(C3CC3)no2)n1",
    "assay value": "< 200 nM"
  },
  {
    "compound": "Cc1cc(CNc2nccc(Nc3cc(C4CCOCC4)[nH]n3)n2)on1 [Example 114, hydrochloride]",
    "assay value": "< 10000 nM"
  },
  {
    "compound": "COc1cccc(CCc2cc(Nc3ccnc(NCc4cc(CO)no4)n3)[nH]n2)c1",
    "assay value": "< 200 nM"
  },
  {
    "compound": "COc1ccccc1CCc1cc(Nc2ccnc(NCc3cc(C)no3)n2)n[nH]1 [Example 31, hydrochloride]",
    "assay value": "< 1000 nM"
  },
  {
    "compound": "NC(=O)c1cc(CNc2nccc(Nc3cc(COc4ccccc4)n[nH]3)n2)on1",
    "assay value": "< 10000 nM"
  }
]
